# System: DMS-114
# assayText: NCI tumour cell line growth inhibition, 48 h
Active and inactive are the calls of the source. Rule as the data show it: active = GI50 up to about 1.1 µM and inactive = higher.

- compound: "O=c1[nH]c(=O)n(C2OC(CO)C(O)C2O)cc1OCC(F)(F)F (centres undefined)"
  GI50: "> 100 µM (inactive)"
- compound: "O=C(Nc1ccccc1-c1nn(C(=S)Nc2ccccc2)c(=S)n(C(=S)Nc2ccccc2)c1=O)C(F)(F)F"
  GI50: "9.38 µM (inactive)"
- compound: "CCCCN(CCCC)C(=Nc1ccccc1)N(CCCC)CCCC"
  GI50: "1.59 µM (inactive)"
- compound: "O=C1[C@@H]2C3C=CC([C@H]4C(=O)N(CO)C(=O)[C@@H]34)[C@@H]2C(=O)N1CO"
  GI50: "32.1 µM (inactive)"
- compound: "CCOC(=O)CC(=O)Sc1ccccc1"
  GI50: "14.4 µM (inactive)"
- compound: "CCOC(=O)c1[nH]c2c(OC)n[n+]([O-])cc2c1[N+](=O)[O-]"
  GI50: "22.2 µM (inactive)"
- compound: "CN(C)CCCN1CCc2c([nH]c3ccccc23)C1c1cccnc1 (centres undefined)"
  GI50: "> 100 µM (inactive)"
- compound: "CCOC1=C2N=C(C(CC)c3ccc(F)cc3)N=C2C(=O)c2ccccc21 (centres undefined)"
  GI50: "22.4 µM (inactive)"
- compound: "CCC(C)OC(=O)C1C2CCC(O2)C1C(=O)O (centres undefined)"
  GI50: "> 41.6 µM (inactive)"
- compound: "COc1cccc(N2C(Cl)C(=O)C2c2c[nH]c3ccccc23)c1 (centres undefined)"
  GI50: "> 100 µM (inactive)"
- compound: "C[C@H]1C(=O)CC[C@]2(C)CCC(C(C)(C)O)CC12O (some centres undefined)"
  GI50: "> 100 µM (inactive)"
- compound: "Cc1ccc(S(=O)(=O)N/N=C2\\CCCCC23CCC(=O)NC3)cc1 (centres undefined)"
  GI50: "> 100 µM (inactive)"
- compound: "O=C1CC(O)C=C1Nc1ccc(Cl)cc1 (centres undefined)"
  GI50: "26.4 µM (inactive)"
- compound: "CCOC(=O)C12CN(C34CC5CC(CC(C5)C3)C4)CC(C(=O)OCC)(C1=O)C(c1ccccc1)OC2c1ccccc1 (centres undefined)"
  GI50: "52.2 µM (inactive)"
- compound: "O=C1CC[C@@H](S(=O)(=O)c2ccccc2)[C@@H](/C=C/c2ccccc2)O1"
  GI50: "> 100 µM (inactive)"
- compound: "COc1ccccc1NC(=O)CC(=O)n1nc(C)c(/N=N/c2ccccc2C(=O)O)c1C"
  GI50: "> 100 µM (inactive)"
- compound: "CCOC(=O)C(C(CC(=O)OC)NC(=O)OCc1ccccc1)C1(C)OCCO1 (centres undefined)"
  GI50: "> 100 µM (inactive)"
- compound: "CCOC(=O)c1c(CN2CCNCC2)nc2ccc(Cl)cc2c1-c1ccccc1"
  GI50: "1.91 µM (inactive)"
- compound: "COC(=O)/C=C/c1c(CC=C(C)C)ncn1C"
  GI50: "5.38 µM (inactive)"
- compound: "COC(=O)CC(=O)OC"
  GI50: "> 100 µM (inactive)"
- compound: "CC(=O)N1CCN(C=S)CC1"
  GI50: "> 100 µM (inactive)"
- compound: "CC/C=C/c1cc2cc[nH]c2c2c1C(C)C[C@@H]2C (some centres undefined)"
  GI50: "20.6 µM (inactive)"
- compound: "C[n+]1c2ccccc2c(NC(CS)C(=O)O)c2ccccc21 (centres undefined)"
  GI50: "29.2 µM (inactive)"
- compound: "N#CC(C(=O)CCC(=O)Nc1ccc(Cl)c(Cl)c1)c1ccc(Cl)cc1 (centres undefined)"
  GI50: "75.3 µM (inactive)"
- compound: "C=C(CN(C)C)C(=O)c1ccccc1Cl"
  GI50: "15.9 µM (inactive)"
- compound: "CC(C)(C)CC(C)(C)NCC(O)COc1ccc(C(C)(C)c2ccc(OCC(O)CNC(C)(C)CC(C)(C)C)cc2)cc1 (centres undefined)"
  GI50: "1.76 µM (inactive)"
- compound: "N#CC(C#N)=c1ccc(=C2NCC3CCCN23)cc1 (centres undefined)"
  GI50: "> 100 µM (inactive)"
- compound: "COC(=O)C1=C(C[S+]([O-])c2ccc([N+](=O)[O-])cc2[N+](=O)[O-])C2C=CC1C2 (centres undefined)"
  GI50: "23.4 µM (inactive)"
- compound: "CC(=O)OC1CC[C@@]2(C)C(CC[C@]3(C)C2CC=C2[C@@H]4C(C)[C@H](C)CCC4(C)CCC23C)[C@@]1(C)C(=O)O (some centres undefined)"
  GI50: "18.4 µM (inactive)"

* * *

# System: IGROV-1
# assayText: NCI tumour cell line growth inhibition, 48 h
Active and inactive are the calls of the source. No stated cut-off is given here; in the data, active = GI50 up to about 1.1 µM and inactive = higher.
valueType: GI50

- molecule: "NC(=O)c1cc2ccccc2o/c1=N/O"
  valueType: "GI50"
  testValue: "66.1 µM (inactive)"
- molecule: "c1ccc([P+](CCSCCSCC[P+](c2ccccc2)(c2ccccc2)c2ccccc2)(c2ccccc2)c2ccccc2)cc1"
  valueType: "GI50"
  testValue: "> 100 µM (inactive)"
- molecule: "CC(O)C(O)C(O)C(/C=N\\Nc1ccccc1)=N/Nc1ccccc1 (stereo not given)"
  valueType: "GI50"
  testValue: "8.49 µM (inactive)"
- molecule: "CCCCNc1nc(NC2OCC(OC(C)=O)C(OC(C)=O)C2OC(C)=O)c(N=O)c(=O)n1C (stereo not given)"
  valueType: "GI50"
  testValue: "> 10 µM (inactive)"
- molecule: "Cc1ccc2nc(-c3ccc(NC(=O)c4ccc(N)cc4)c(S(=O)(=O)O)c3)sc2c1"
  valueType: "GI50"
  testValue: "> 100 µM (inactive)"
- molecule: "[N-]=[N+]=Nc1ccc2c(c1)Sc1ccccc1N2CCCCCl"
  valueType: "GI50"
  testValue: "> 100 µM (inactive)"
- molecule: "O=C1NC2C3CC(OCc4ccccc4)(OCc4ccccc4)C2OC3O1 (stereo not given)"
  valueType: "GI50"
  testValue: "> 50 µM (inactive)"
- molecule: "CCC/C(Cl)=N/OC(NC(=O)OCC)(C(F)(F)F)C(F)(F)F"
  valueType: "GI50"
  testValue: "16.6 µM (inactive)"
- molecule: "Nc1nc(Sc2ccc([N+](=O)[O-])cn2)c2nc[nH]c2n1"
  valueType: "GI50"
  testValue: "14.5 µM (inactive)"
- molecule: "Clc1c2nc3ccccc3c-2[nH]c2ccccc12"
  valueType: "GI50"
  testValue: "9.68 µM (inactive)"

* * *

# System: K562
# assayText: NCI tumour cell line growth inhibition, 48 h
Activity calls are given as the source filed them. Rule as the data show it: active = GI50 up to about 1.1 µM and inactive = higher. Non-standard residues stand in square brackets, D forms with d. Residues, ends and D or L forms follow the SMILES beside them. ξ: configuration not given here. ξLac(3-iPr) = CC(C)CC(O)C(=O)O; NMeV = CN[CH](C(=O)O)C(C)C; NMeA = CN[CH](C)C(=O)O; βAla = NCCC(=O)O
Entries and their GI50
valueType: GI50

- compound: "COc1cccc(/N=N/C(=N\\NC(=O)c2ccc(C)cc2)c2ccc(N(CCC#N)CCC#N)cc2C)c1"
  testValue: "> 100 µM (inactive)"
- compound: "NCCCN(CCCCN(CCCN)Cc1ccccc1)Cc1ccccc1"
  testValue: "54.2 µM (inactive)"
- compound: "CCCCCCCCCCCCCCCCSCC(COC)COP(=O)([O-])OCC[N+](C)(C)C (stereo not given) [ILMOFOSINE]"
  testValue: "13.6 µM (inactive)"
- compound: "c1ccc2cc(OCC3CO3)c(OCC3CO3)cc2c1 (stereo not given)"
  testValue: "3.73 µM (inactive)"
- compound: "C=CCNC(=O)NCCCCC(NC(C)=O)C(=O)NCc1ccccc1 (stereo not given)"
  testValue: "> 100 µM (inactive)"
- compound: "CCC/C(Cl)=N/OC(NC(=O)OCC)(C(F)(F)F)C(F)(F)F"
  testValue: "25.6 µM (inactive)"
- compound: "O=C1CC(O)C=C1Nc1ccc(Cl)cc1 (stereo not given)"
  testValue: "4.4 µM (inactive)"
- compound: "O=C(CCC(=O)CC(O)(C(F)(F)F)C(F)(F)F)CC(O)(C(F)(F)F)C(F)(F)F"
  testValue: "33.4 µM (inactive)"
- compound: "CNC(=O)O/N=C1\\N(C)CN(c2ccccc2)C12CCN(CCCC(=O)c1ccc(F)cc1)CC2"
  testValue: "38.5 µM (inactive)"
- compound: "c1ccc2c(c1)N=C(c1cccc3ccccc13)CC(c1cccc3ccccc13)S2 (stereo not given)"
  testValue: "2.49 µM (inactive)"
- compound: "COc1ccc(Cc2n[nH]c(Nc3ccc(Br)cc3)nc2=O)cc1OC"
  testValue: "44.9 µM (inactive)"
- compound: "O=C1CC[C@@H](S(=O)(=O)c2ccccc2)[C@@H](/C=C/c2ccccc2)O1"
  testValue: "> 100 µM (inactive)"
- compound: "N#CC(C(=O)CCC(=O)Nc1ccc(Cl)c(Cl)c1)c1ccc(Cl)cc1 (stereo not given)"
  testValue: "14.6 µM (inactive)"
- compound: "CCC(C)C1NC(=O)C2CCCN2C(=O)C(CC(C)C)OC(=O)CCNC(=O)C(C)N(C)C(=O)C(C(C)C)N(C)C1=O (stereo not given) (cyclo([ξLac(3-iPr)]PI[NMeV][NMeA][βAla]); configuration not given here)"
  testValue: "3.16 µM (inactive)"
- compound: "CC(O)C1(O)C(O)CC(OC2c3cc4c(c(O)c3[C@@H]3C[C@@]2(C)OC32C=c3cc[nH]c3=N2)C(=O)c2cccc(O)c2C4=O)OC1C (stereo not given in full)"
  testValue: "0.935 µM (active)"
- compound: "CCc1ccc2c(c1)/C(=C1/Nc3ccccc3/C1=N/O)C(=O)N2"
  testValue: "4.5 µM (inactive)"
- compound: "COc1c(-c2ccc(O)c(O)c2)oc2c(O)c(O)cc(O)c2c1=O"
  testValue: "20.8 µM (inactive)"
- compound: "N#CC(C#N)=c1ccc(=C2NCC3CCCN23)cc1 (stereo not given)"
  testValue: "> 100 µM (inactive)"
- compound: "COc1cc(C=C2C(=O)NC(=O)NC2=O)cc(OC)c1OC"
  testValue: "> 100 µM (inactive)"
- compound: "O=C(/C=C/c1ccc(O)c(O)c1)Oc1ccccc1"
  testValue: "4.27 µM (inactive)"
- compound: "Cc1cc(O)c(-c2cc(O)c(C)cc2O)cc1O"
  testValue: "1.86 µM (inactive)"
- compound: "CC(C)(Sc1cc(C(C)(C)C)c(O)c(C(C)(C)C)c1)Sc1cc(C(C)(C)C)c(O)c(C(C)(C)C)c1 [PROBUCOL]"
  testValue: "1.81 µM (inactive)"
- compound: "CCOC(=O)C1C(c2ccccc2)C2(C#N)C(=N)OC1(C)C2(C#N)C#N (stereo not given)"
  testValue: "19.8 µM (inactive)"
- compound: "Cc1ccc(C)c(N2C(=O)C(=O)c3c(C)ccc(C)c32)c1"
  testValue: "22 µM (inactive)"
- compound: "CCNC(=S)N/N=C/c1cc(OC)ccc1O"
  testValue: "97.9 µM (inactive)"
